# tested-system: Aurora kinase B (Homo sapiens)
# protocol-text: Inhibition of Aurora B kinase assessed as reduction in histone H3 phosphorylation in human HCT116 cells
parameter: IC50 (nM)
Answers are plain numbers, in nM.

Study these solved cases before continuing.
[[record]]
smiles_str = "Cc1cc(Nc2nc(Sc3ccc(NC(=O)CN4C[C@H](F)C[C@H]4CO)cc3)nn3cccc23)n[nH]1"
tested_system = "Aurora kinase B (Homo sapiens)"
endpoint_unit = "nM"
observed_result = 91

[[record]]
smiles_str = "Cc1cc(Nc2nc(Sc3ccc(NC(=O)CN4C[C@H](O)C[C@H]4CO)cc3)nn3cccc23)n[nH]1"
tested_system = "Aurora kinase B (Homo sapiens)"
endpoint_unit = "nM"
observed_result = 637

[[record]]
smiles_str = "Cc1cc(Nc2nc(Sc3ccc(NC(=O)CN4C[C@H](OC(C)(C)C)C[C@@H]4CO)cc3)nn3cccc23)n[nH]1"
tested_system = "Aurora kinase B (Homo sapiens)"
endpoint_unit = "nM"
observed_result = 2490


**Q:** Report IC50 for `Cc1cc(Nc2nc(Sc3ccc(NC(=O)CN(C)C)cc3)nn3cccc23)n[nH]1` please.
**A:** 293

====

As a worked illustration, we turn to Kd data collected for Aurora kinase B (Homo sapiens, UniProt Q96GD4).
One number for each entry, in nM.

Study these solved cases before continuing.
[[record]]
smiles_str = "Cc1cc(Nc2nc(Sc3ccc(NC(=O)CN4C[C@H](OC5CCCC5)[C@@H](O)C4)cc3)nn3cccc23)n[nH]1"
parameter = "Kd"
observed_result = 4

[[record]]
smiles_str = "Cc1cc(Nc2nc(Sc3ccc(NC(=O)CNC4CCCC4)cc3)nn3cccc23)n[nH]1"
parameter = "Kd"
observed_result = 42

[[record]]
smiles_str = "Cc1cc(Nc2nc(Sc3ccc(NC(=O)CN4C[C@H]5C[C@H]5[C@H]4CO)cc3)nn3cccc23)n[nH]1"
parameter = "Kd"
observed_result = 15


**Q:** Write down the reported Kd of `Cc1cc(Nc2nc(Sc3ccc(NC(=O)CN4C[C@H](N)C[C@H]4CO)cc3)nn3cccc23)n[nH]1` , test system: Aurora kinase B (Homo sapiens, UniProt Q96GD4).
Sequence (Q96GD4 whole entry): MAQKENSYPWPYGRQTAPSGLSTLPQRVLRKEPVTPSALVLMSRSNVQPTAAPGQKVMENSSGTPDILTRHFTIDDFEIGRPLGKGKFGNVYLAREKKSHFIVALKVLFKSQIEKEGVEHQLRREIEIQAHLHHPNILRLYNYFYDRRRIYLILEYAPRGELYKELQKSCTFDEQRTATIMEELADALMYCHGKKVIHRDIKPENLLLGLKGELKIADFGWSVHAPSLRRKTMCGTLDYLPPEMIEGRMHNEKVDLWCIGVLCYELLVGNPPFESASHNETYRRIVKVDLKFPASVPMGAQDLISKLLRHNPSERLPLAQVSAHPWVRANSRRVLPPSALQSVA
**A:** 144

====

# protocol-text: AUC in Sprague-Dawley rat at 1 mg/kg, iv
# Format: ADME, organism-based
# Design: dose 1 mg/kg, route intravenous
# run-parameters: plasma
Flag rule - AUC less than 800 nM·h flags Met; the remaining entries get Not met.

Example results:
[[record]]
smiles_str = "Cc1cc(Nc2nc(Sc3ccc(NC(=O)C4CC4)cc3)nn3cccc23)n[nH]1"
group_label = "Not met"

[[record]]
smiles_str = "Cc1cc(Nc2nc(Sc3ccc(NC(=O)CN4C[C@H](OC(C)(C)C)[C@@H](O)C4)cc3)nn3cccc23)n[nH]1"
group_label = "Met"

[[record]]
smiles_str = "Cc1cc(Nc2nc(Sc3ccc(NC(=O)CN4C[C@H](OC(C)(C)C)C[C@H]4CO)cc3)nn3cccc23)n[nH]1"
group_label = "Met"

[[record]]
smiles_str = "Cc1cc(Nc2nc(Sc3ccc(NC(=O)CN4C[C@H](Oc5ccc(F)cc5)[C@@H](O)C4)cc3)nn3cccc23)n[nH]1"
group_label = "Not met"


Switching to the query record.
**Q:** Given the entry `Cc1cc(Nc2nc(Sc3ccc(NC(=O)C4CC4)cc3)nn3cc(NC(=O)N4CCN(C)CC4)cc23)n[nH]1` , would its reported AUC be below 800 nM·h?
**A:** Met
